Item-by-item account of Tm
Experiment: melting temperature; fluorescence melt of hairpins on a sequencing array, two-state fit, raised by 9.35 °C to match UV melts
Conditions: sodium 0.088 M
Quick reminder: number only, in °C, skip the unit.

{"biosequence": "GACCGCGGAAACGCGACC (..((((....))))..)", "Tm [°C]": 28.9}
{"biosequence": "GCACCTCGAAAGAGATGC (((.(((....))).)))", "Tm [°C]": 50.6}
{"biosequence": "CGGCCGGAAACGGTCCCG ((((((....)))..)))", "Tm [°C]": 41}

Any idea what Tm was measured for GTCGCTACGAAAGTAGAC (((..(((....)))))) ? 33.3

###

Entries and their measured folding enthalpy follow.
Test: folding enthalpy; higher = less favourable; fluorescence melt of hairpins on a sequencing array, two-state fit
Conditions: sodium 0.088 M
// return numeric value only (unit: kcal/mol, not printed)

{"biosequence": "TTTCGGAAACGAAA (((((....)))))", "folding enthalpy [kcal/mol]": -18.3}
{"biosequence": "GGGCTACGAAAGTAACCC (((.(((....))).)))", "folding enthalpy [kcal/mol]": -36.6}

Item under review: GATCACCCACGTGATC ((((((....)))))) . Reported folding enthalpy? -47

Quick one: folding enthalpy of GTTCCCCGAAAGGGTAAC (((.(((....))).))) ? -19.9

Item GATCTCGGAAACAAGATC (((((.(....).))))) has what recorded folding enthalpy? -15

Would you kindly share the measured folding enthalpy for GTCGTTACGAAAGTAGAC (((..(((....)))))) ? -29.1

###

Assay: folding enthalpy; higher = less favourable; fluorescence melt of hairpins on a sequencing array, two-state fit
Conditions: sodium 0.088 M
parameter: folding enthalpy (kcal/mol)
Numeric only. Scale: kcal/mol

// known answers, use as guide
{"biosequence": "GAAAAGCGAAAGCTCTTC (((.(((....))).)))", "display_unit": "kcal/mol", "folding enthalpy": -15.4}
{"biosequence": "GCAGAGCGAAAGCTTAGC ((..(((....)))..))", "display_unit": "kcal/mol", "folding enthalpy": -17.5}
{"biosequence": "GATCCGTCATCGGATC ((((((....))))))", "display_unit": "kcal/mol", "folding enthalpy": -39}

What value of folding enthalpy has been recorded for this entry: GTCACTGGAAACGGTGAC (((((.(....).))))) -47.5

Looking for the measured folding enthalpy of GTCACGGCGAAAGCCGAC (((..(((....)))))) , can you help? -6.5

Record request: folding enthalpy value, item GTAGGCGAAAGCCAGTAC ((((((....)))..))) -8.17

###

Assay: folding enthalpy; higher = less favourable; fluorescence melt of hairpins on a sequencing array, two-state fit
Conditions: sodium 0.088 M
Catalogue of folding enthalpy readings, one per entry.
Report the value in kcal/mol with no unit label.

Answered cases to consult:
{"biosequence": "GGGGGTGGAAACACCCTC (.(((((....))))).)", "parameter": "folding enthalpy", "result": -16.7}
{"biosequence": "CGCTTCGGAAACGAGGCG (((.(((....))).)))", "parameter": "folding enthalpy", "result": -42.4}

Which measured folding enthalpy value corresponds to GATCAACTAATTGATC ((((((....)))))) ? -28.4

Consider the sequence GATCAGATCACTGATC ((((((....)))))) and give its measured folding enthalpy. -28.6

Item GATCTACCGATAGATC ((((((....)))))) has what recorded folding enthalpy? -35.5

Which measured folding enthalpy value corresponds to GCCAGTCGAAAGACGGC (((.(((....)))))) ? -33.8

Field request: folding enthalpy | item: GTAGTCCGAAAGGAATAC (((.(((....))).))) -37.6

Param item = GGTTTGGGAAACCGAACC ((((.((....)).)))) ; retrieve measured folding enthalpy. -34.2

So what's the measured folding enthalpy for this one? GGGTTGGGAAACCGATCC ((.(.((....)).).)) -16.3

Sample GCCAGACCGAAAGGTGGC (((..(((....)))))) — what was its folding enthalpy? -42.4

###

Test: melting temperature; fluorescence melt of hairpins on a sequencing array, two-state fit, raised by 9.35 °C to match UV melts
Details: sodium 0.088 M
parameter: Tm
Field: value (include unit after the number)

Guide cases for Tm, answers given:
{"biosequence": "GATCTCGTGGAGATC ((((((...))))))", "result": "54.5 °C"}
{"biosequence": "GTGCAGGGAAACCCGCAC ((((.((....)).))))", "result": "54.9 °C"}
{"biosequence": "GATCCCCCGTGGGATC ((((((....))))))", "result": "60.5 °C"}
{"biosequence": "GGATCCGAAAGGAATCC ((((((....))).)))", "result": "50.8 °C"}
{"biosequence": "GAGTACGGAAACGTACTC (((((((....)))))))", "result": "64 °C"}

Given GCAAGGCGAAAGCGATGC (((..((....))..))) , state its recorded Tm. 53.4 °C

Fill in: Tm of CGTTCGGAAACGATACG ((((((....))).))) is ___ 42.1 °C

Entry under review: GCGTCGGCACGC ((((....)))) . Reported Tm? 56.4 °C

###

Test: folding enthalpy; higher = less favourable; fluorescence melt of hairpins on a sequencing array, two-state fit
Conditions: sodium 0.088 M
Class (by folding enthalpy) -- bucket A (below -30 kcal/mol), bucket B (-30 kcal/mol to below -20 kcal/mol), bucket C (-20 kcal/mol or more)

A selection of reference data follows.
{"biosequence": "GTCTATGGAAACATGGAC (((.(((....))).)))", "assigned_class": "bucket A"}
{"biosequence": "GATCTCTTTCGAGATC ((((((....))))))", "assigned_class": "bucket B"}
{"biosequence": "GCAACGCGAAAGCGAAGC ((..(((....)))..))", "assigned_class": "bucket C"}
{"biosequence": "GTCTAAGGAAACTTAGGC (.(((((....))))).)", "assigned_class": "bucket B"}
{"biosequence": "GCTAGAGGAAACCCTAGC (((((.(....).)))))", "assigned_class": "bucket A"}
{"biosequence": "GATCGTCTTACGATC ((((((...))))))", "assigned_class": "bucket A"}
{"biosequence": "GATCTTAGGAAAGATC ((((((....))))))", "assigned_class": "bucket B"}
{"biosequence": "GCAATGCGAAAGCACTGC (((.(((....))).)))", "assigned_class": "bucket A"}
{"biosequence": "GATCCGGGAAACCGGGTC ((.((((....)))).))", "assigned_class": "bucket A"}
{"biosequence": "GCGAGCGAAAGCTGCCGC ((((((....)))..)))", "assigned_class": "bucket C"}

Now consider the entry below.
Form: Item = CGAATCCGGAAACGGTCG (((..(((....)))))) ; Class = ? bucket C

###

Test: folding enthalpy; higher = less favourable; fluorescence melt of hairpins on a sequencing array, two-state fit
Settings: sodium 0.088 M
# key: entry, value: folding enthalpy
The answer is to be given in kcal/mol; state only the numeric part.

Solved entries (count: 3):
{"biosequence": "GATCCGTTCACGGATC ((((((....))))))", "display_unit": "kcal/mol", "folding enthalpy": -51}
{"biosequence": "GCTTCTGGAAACAGGAGC (((.(((....))).)))", "display_unit": "kcal/mol", "folding enthalpy": -37.5}
{"biosequence": "GATACCGGAAACGGTATC (((((((....)))))))", "display_unit": "kcal/mol", "folding enthalpy": -34.2}

Please report the recorded folding enthalpy for GATCTAGAACTAGATC ((((((....)))))) . -34.2

###

Form field: folding enthalpy (one value per entry).
Assay: folding enthalpy; higher = less favourable; fluorescence melt of hairpins on a sequencing array, two-state fit
Conditions: sodium 0.088 M
Give your result in kcal/mol as a bare value.

Use the examples below as a reference point.
{"biosequence": "GCGAAGTATCGC ((((....))))", "result": -14.3}
{"biosequence": "GCCCAGCGAAAGCACGGC (((..((....))..)))", "result": -18.4}
{"biosequence": "GCGAACGAAAGTTGACGC ((((((....)))..)))", "result": -23}

For GATCTAAAGTTAGATC ((((((....)))))) , what is its reported folding enthalpy? -26.1

Can you share its folding enthalpy? I mean this sequence: CGGTGCCGGAAACGGCCG (((..(((....)))))) -9.28

Which folding enthalpy value is on record for GGTTAACGAAAGTTCACC (((.(((....))).))) ? -31.3

Returns the measured folding enthalpy for the input sequence. Input: GATCCCTCGCGGGATC ((((((....)))))) -39.1

What does the record list as folding enthalpy for GGCAGCGAAAGCTTGGCC ((((((....)))..))) ? -23.7

Could you tell me which folding enthalpy is on file for GCCGTGCGAAAGCAGGC (((.(((....)))))) ? -23.7
